# protocol_notes: Human HepG2 cell viability assay in 384 well format
# Assay type: toxicity, cell-based
# Set-up: dose 125 nL, time 70.5 hour; concentration not given beside the values
# run_parameters: HepG2 cells, read-out: Inhibition
attribute_measured: cytotoxicity at 70.5 h (%)
# number only, unit % dropped from output

Solved cases (3 shown):
[
  {
    "compound": "COc1cc2c(cc1CNC(=O)Cc1cc(C)[nH]n1)OC(C)C2 (stereo unspecified)",
    "cytotoxicity at 70.5 h, %": 3.19
  },
  {
    "compound": "CCNC(=O)N1CCC(NC(=O)NCCc2cc3ccccc3o2)C1 (stereo unspecified)",
    "cytotoxicity at 70.5 h, %": 11.5
  },
  {
    "compound": "CN(Cc1cccc(F)c1)C(=O)CN1CCCC1CCc1ccccc1 (stereo unspecified)",
    "cytotoxicity at 70.5 h, %": -4.07
  }
]

QUERY: Please report the recorded cytotoxicity at 70.5 h for CC(C)c1nc(C(=O)N2CCCC(N)CC2)cs1 (stereo unspecified) .
RESULT: 25.2

QUERY: Suppose we examine the compound O=C(NCC1Cn2nnc(-c3cccc(F)c3)c2CO1)c1ccc[nH]1 (stereo unspecified) ; what cytotoxicity at 70.5 h value has been reported?
RESULT: 4.99

QUERY: Item O=C(NCC1CCOCC1)[C@@H]1C[C@@H]2CCN(Cc3ccco3)C[C@H]2O1 has what recorded cytotoxicity at 70.5 h?
RESULT: -5.42

QUERY: # query: cytotoxicity at 70.5 h of entry Cc1cc(NCCC(=O)NC(C)C)nc(-c2ccncc2)n1
RESULT: 3.03

QUERY: So what's the measured cytotoxicity at 70.5 h for this one? O=S(=O)(Cc1cc(-c2ccccc2)no1)CC1CCCO1 (stereo unspecified)
RESULT: -8.25

QUERY: Give the measured cytotoxicity at 70.5 h of OC1(CNC2CCN(c3ccccn3)CC2)CCc2ccccc21 (stereo unspecified) .
RESULT: -6.83

QUERY: What value of measured cytotoxicity at 70.5 h is listed for c1csc(CN2CCCn3cnc(COCC4CC4)c3C2)n1 ?
RESULT: -0.793

QUERY: Requested field: cytotoxicity at 70.5 h. Item: Cc1nc(-c2ccccc2)n(CC(=O)N(C(C)C)C(C)C)n1
RESULT: 2.39

FYI, the data here is from ChEMBL document CHEMBL3507680.
